Target: ScMyo5
Experiment: SPOT peptide array binding signal intensity (averaged, normalized) (arbitrary units (background-subtracted, floor 0; scale differs between SH3 domains)); higher = stronger binding of the SH3 domain to the peptide
Threshold rule: SPOT peptide array binding signal intensity greater than or equal to 8 is MET; below that, NOT MET.

Binder	Classification
TSIEIPKRSPLRFTS	NOT MET
LKHGWKPLRPIKLIS	NOT MET
FFRRSELYLPNSSKA	MET
SPLGAPPPPPHKDHL	MET
DTFLPPPPPPPSNFE	MET

Given the entry QFDLKMPSKPIHNLK , answer whether its SPOT peptide array binding signal intensity meets or surpasses 8.
NOT MET

Does SPOT peptide array binding signal intensity meet or surpass 8 for SKSRLLIELPEGFFT ?
NOT MET
